- Test target: corticotropin releasing factor 1 receptor
- Measurement notes: cell-based or functional assay
Ends that are not written are not given here.
Test readout: CRF1R EC50 (nM)
Respond numerically; units are nM and should not be typed.

Return reported CRF1R EC50. Input binder: SQEPPISLDLPLQLLREVLEMTKADQLAQQAHSNRKLLDIA-NH2 [SEQ ID NO 95]
100

Return reported CRF1R EC50. Input binder: SQEPPISLDLPIGLLREVLEMTKADQLAQQAHSNRKLLDIA-NH2 [SEQ ID NO 93]
100

Return reported CRF1R EC50. Input binder: ZGPPISIDLPWFLLRKMIEIEKQEKEKQQAANNRLLLDTI (C-terminal amide) [SEQ ID NO 187]
31.6
